Hey, just so you know, these numbers are from patent US20190064177A1.

- Test system: diaphorase
- Experimental Protocol: fluorescently labeled diaphorase binding to peptide array with or without excess FAD
- Recorded Conditions: ratio of binding without FAD to binding with FAD, 10 micromolar diaphorase
- Description: Measurements were performed in which diaphorase was bound to an array of about 126,000 unique sequences. The sequences were chosen simply to cover sequence space. 16 of the natural 20 amino acids were used to make up these sequences with C, I, M and T omitted. The diaphorase was fluorescently labeled and each peptide sequence feature was scanned and fluorescence recorded on the array. Diaphorase bound tightly to some peptides and not at all to others. […]

Seq Text: RYNLYKPSDGSG [array peptide with C-terminal GSG linker]
10 microM noFAD/FAD: 2.771
//
Seq Text: YVWGLELSGGSG [array peptide with C-terminal GSG linker]
10 microM noFAD/FAD: 0.4759
//
Seq Text: VFGVLSQVARDGSG [array peptide with C-terminal GSG linker]
10 microM noFAD/FAD: 0.5085
//
Seq Text: PRYSGQYGGSG [array peptide with C-terminal GSG linker]
10 microM noFAD/FAD: 1.451
//
Seq Text: AQVAVDGFYVDGSG [array peptide with C-terminal GSG linker]
10 microM noFAD/FAD: 0.5553
//
Seq Text: KHSFQKELGGSG [array peptide with C-terminal GSG linker]
10 microM noFAD/FAD: 0.7943
//
Seq Text: LLGFLGGSG [array peptide with C-terminal GSG linker]
10 microM noFAD/FAD: 0.652
//
Seq Text: LDRLGEYQFSGSG [array peptide with C-terminal GSG linker]
10 microM noFAD/FAD: 0.4194
//
Seq Text: RAQYAQYLFGGSG [array peptide with C-terminal GSG linker]
10 microM noFAD/FAD: 1.182
//
Seq Text: WRGFKFADGGSG [array peptide with C-terminal GSG linker]
10 microM noFAD/FAD: 1.871
//
Seq Text: RFKYPLDGGSG [array peptide with C-terminal GSG linker]
10 microM noFAD/FAD: 1.839
//
Seq Text: RYYPAFSGGSG [array peptide with C-terminal GSG linker]
10 microM noFAD/FAD: 1
//
Seq Text: RWQYYNQKFGSG [array peptide with C-terminal GSG linker]
10 microM noFAD/FAD: 1
//
Seq Text: YRFPNAQSPGGSG [array peptide with C-terminal GSG linker]
10 microM noFAD/FAD: 1.737
//
Seq Text: VKDGNKHYWRVSGSG (VKDGANKHYWRVSGSG) [array peptide with C-terminal GSG linker]
10 microM noFAD/FAD: 1.143
//
Seq Text: KPLAVQKVGSG (KPLAVQKVFGSG) [array peptide with C-terminal GSG linker]
10 microM noFAD/FAD: 1.254
//
Seq Text: PRYQNFGGGSG [array peptide with C-terminal GSG linker]
10 microM noFAD/FAD: 1.788
//
Seq Text: RLYPQGYGGSG [array peptide with C-terminal GSG linker]
10 microM noFAD/FAD: 1.061

###

List of 10 microM noFAD/FAD values.
- Test system: diaphorase
- Experimental Protocol: fluorescently labeled diaphorase binding to peptide array with or without excess FAD
- Recorded Conditions: ratio of binding without FAD to binding with FAD, 10 micromolar diaphorase

Seq Text: RYPWNKLYKFDGSG [array peptide with C-terminal GSG linker]
10 microM noFAD/FAD: 1.236
//
Seq Text: YRNAAWFSGGSG [array peptide with C-terminal GSG linker]
10 microM noFAD/FAD: 1.514
//
Seq Text: YSALFGLQEDGSG [array peptide with C-terminal GSG linker]
10 microM noFAD/FAD: 0.5055
//
Seq Text: RPLQVQRGGSG [array peptide with C-terminal GSG linker]
10 microM noFAD/FAD: 1.297
//
Seq Text: LAKQNRVEDGSS (LAKQNRVEDGSG) [array peptide with C-terminal GSG linker]
10 microM noFAD/FAD: 0.7971
//
Seq Text: VLSLNQVYSEGSG [array peptide with C-terminal GSG linker]
10 microM noFAD/FAD: 0.4515
//
Seq Text: VERASYNLDGSG [array peptide with C-terminal GSG linker]
10 microM noFAD/FAD: 0.8597
//
Seq Text: RWKYQKFNGGSG [array peptide with C-terminal GSG linker]
10 microM noFAD/FAD: 1.328
//
Seq Text: YRFQSGLPAKDGSG [array peptide with C-terminal GSG linker]
10 microM noFAD/FAD: 2.488
//
Seq Text: SVLEGYQAVFGGSG [array peptide with C-terminal GSG linker]
10 microM noFAD/FAD: 0.2819
//
Seq Text: DLFQLVFSGSG [array peptide with C-terminal GSG linker]
10 microM noFAD/FAD: 0.4986
//
Seq Text: RWRYYWKSEGSG [array peptide with C-terminal GSG linker]
10 microM noFAD/FAD: 1.275
//
Seq Text: QLLQLLFGGSG [array peptide with C-terminal GSG linker]
10 microM noFAD/FAD: 0.3658
//
Seq Text: RWSFPAKGGSG [array peptide with C-terminal GSG linker]
10 microM noFAD/FAD: 1.279
//
Seq Text: RWYKNGGSG [array peptide with C-terminal GSG linker]
10 microM noFAD/FAD: 1.4
//
Seq Text: YRPYGPVYNGGSG [array peptide with C-terminal GSG linker]
10 microM noFAD/FAD: 1

###

List of 1 microM noFAD/FAD values.
- Tested on: diaphorase
- Experimental Protocol: fluorescently labeled diaphorase binding to peptide array with or without excess FAD
- Recorded Conditions: ratio of binding without FAD to binding with FAD, 1 micromolar diaphorase

Seq Text: AFYGLELGGSG [array peptide with C-terminal GSG linker]
1 microM noFAD/FAD: 0.5414

Seq Text: RYNLYKPSDGSG [array peptide with C-terminal GSG linker]
1 microM noFAD/FAD: 2.865

Seq Text: RFGQNLPLGGSG [array peptide with C-terminal GSG linker]
1 microM noFAD/FAD: 2.759

Seq Text: FGKLYQLYNDGSG [array peptide with C-terminal GSG linker]
1 microM noFAD/FAD: 0.6268

Seq Text: FQFGKVVSDGSG [array peptide with C-terminal GSG linker]
1 microM noFAD/FAD: 0.6374

Seq Text: RWRYYWKSEGSG [array peptide with C-terminal GSG linker]
1 microM noFAD/FAD: 2.698

Seq Text: VVQALFDGSG [array peptide with C-terminal GSG linker]
1 microM noFAD/FAD: 0.6369

Seq Text: VKDGNKHYWRVSGSG (VKDGANKHYWRVSGSG) [array peptide with C-terminal GSG linker]
1 microM noFAD/FAD: 0.1799

Seq Text: YRFQSGLPAKDGSG [array peptide with C-terminal GSG linker]
1 microM noFAD/FAD: 2.713

Seq Text: RWYKNGGSG [array peptide with C-terminal GSG linker]
1 microM noFAD/FAD: 2.782

Seq Text: KHSFQKELGGSG [array peptide with C-terminal GSG linker]
1 microM noFAD/FAD: 2.867

Seq Text: RLYPQGYGGSG [array peptide with C-terminal GSG linker]
1 microM noFAD/FAD: 2.623

Seq Text: LLGFLGGSG [array peptide with C-terminal GSG linker]
1 microM noFAD/FAD: 0.5594

Seq Text: NVSDLSQFYLSGSG [array peptide with C-terminal GSG linker]
1 microM noFAD/FAD: 0.6241

Seq Text: RQAYLFGGSG [array peptide with C-terminal GSG linker]
1 microM noFAD/FAD: 3.234

Seq Text: LAKQNRVEDGSS (LAKQNRVEDGSG) [array peptide with C-terminal GSG linker]
1 microM noFAD/FAD: 0.5369

Seq Text: LKQLFLEGGSG [array peptide with C-terminal GSG linker]
1 microM noFAD/FAD: 0.6301

Seq Text: RYAYFQHLGGSG [array peptide with C-terminal GSG linker]
1 microM noFAD/FAD: 2.733

Seq Text: RLQYLFKSDGSG [array peptide with C-terminal GSG linker]
1 microM noFAD/FAD: 2.941

Seq Text: VFGVLSQVARDGSG [array peptide with C-terminal GSG linker]
1 microM noFAD/FAD: 0.6403

Seq Text: SVLEGYQAVFGGSG [array peptide with C-terminal GSG linker]
1 microM noFAD/FAD: 0.5035

Seq Text: YRLNLKHPVGGSG [array peptide with C-terminal GSG linker]
1 microM noFAD/FAD: 3.051

Seq Text: VLSLNQVYSEGSG [array peptide with C-terminal GSG linker]
1 microM noFAD/FAD: 0.619

Seq Text: PRYQNFGGGSG [array peptide with C-terminal GSG linker]
1 microM noFAD/FAD: 2.81

Seq Text: RWKYQKFNGGSG [array peptide with C-terminal GSG linker]
1 microM noFAD/FAD: 2.633

Seq Text: YRPYGPVYNGGSG [array peptide with C-terminal GSG linker]
1 microM noFAD/FAD: 2.767
